molecular target: Hfq Y25D (distal face) (Escherichia coli, UniProt P0A6X3 1-102, Y25D); assay: filter binding
MEASUREMENT LABEL: Kd

AgvB (structured_RNA) RNA: GGCGAUAACACAACAAUAUCAGUAUCUCAUGCUAUUGCCCGAACCCAUUCGGGCAUUUUU ... 0.13 nM
